Assay: Plasma and inner ear fluid exposure after single oral gavage (Example 1)
Format: in vivo, male Wistar rats
Details: male, Wistar; rat inner ear fluid, single oral 30 mg/kg, T0 + 2 hours; read-out: Concentration of paliroden (fumarate salt), IEF, Mean
Experimental: Two compositions were prepared: composition A and composition B. Composition A is an aqueous solution comprising: • 6 mg/mL (free base equivalent) of fumarate salt of 1-[2-(4-biphenylyl)ethyl]-4-(3-trifluoromethylphenyl)-1,2,3,6-tetrahydropyridine (=paliroden fumarate), and • 0.6% w/v of methylcellulose with respect to the total volume of the aqueous solution. […]
Where a name gives a salt, the structure may show the parent alone.
Metric: concentration at 2 h (ng/mL)
Please respond with the number in ng/mL and leave the unit unwritten.

Exam item: Look up concentration at 2 h for this molecule: FC(F)(F)c1cccc(C2=CCN(CCc3ccc(-c4ccccc4)cc3)CC2)c1 [paliroden (fumarate salt)]
Marked response: 10.9

---

assay: Plasma and inner ear fluid exposure after single oral gavage (Example 1); format: in vivo, male Wistar rats; details: male, Wistar, plasma; rat, single oral 30 mg/kg, T0 + 4 hours; read-out: Concentration of paliroden (fumarate salt), Plasma, Mean
Structures can show the parent of a compound that is named as a salt.
Metric: concentration at 4 h (ng/mL)
Please respond with the number in ng/mL and leave the unit unwritten.

Exam item: Look up concentration at 4 h for this compound: FC(F)(F)c1cccc(C2=CCN(CCc3ccc(-c4ccccc4)cc3)CC2)c1 [paliroden (fumarate salt)]
Marked response: 3.1

---

Test: Plasma and inner ear fluid exposure after single trans-tympanic injection in lipid-based mucoadhesive solution (Example 3)
Assay type: in vivo, male Wistar rats
Settings: male, Wistar, other: trans-tympanic injection, rat inner ear fluid, trans-tympanic 243 μg, T0 + 1 hour, read-out: Concentration of paliroden (fumarate salt), IEF, Mean
Description: Composition 7P and composition 7X as described in example 2 were administered to male Wistar rats (5 animals per active agent and timepoint), as described below. […] For the 15 rats that have received composition 7P and for the 15 rats that have received composition 7X, plasmatic and inner ear expositions were determined via blood and cochlea terminal sampling in order to achieve lithium-heparin plasma and inner ear fluid preparation, at T+1 hour, T+24 hours and T+168 hours. […]
Counter-ions that a name gives are not always drawn.
Metric: concentration at 1 h (ng/mL)
Please respond with the number in ng/mL and leave the unit unwritten.

Exam item: Look up concentration at 1 h for this compound: FC(F)(F)c1cccc(C2=CCN(CCc3ccc(-c4ccccc4)cc3)CC2)c1 [paliroden (fumarate salt)]
Marked response: 5100

---

test: Plasma and inner ear fluid exposure after single trans-tympanic injection in thermoreversible hydrogel composition (Example 4); format: in vivo, male Wistar rats; details: male, Wistar, other: trans-tympanic injection, 150 μg in one ear; rat inner ear fluid, trans-tympanic 150 μg, thermoreversible hydrogel, T0 + 24 hours; read-out: Concentration of xaliproden (hydrochloride salt), IEF, Mean
Where a name gives a salt, the structure may show the parent alone.
Metric: concentration at 24 h (ng/mL)
Please respond with the number in ng/mL and leave the unit unwritten.

Exam item: Look up concentration at 24 h for this molecule: FC(F)(F)c1cccc(C2=CCN(CCc3ccc4ccccc4c3)CC2)c1 [xaliproden (hydrochloride salt)]
Marked response: 108

---

assay: Plasma and inner ear fluid exposure after single trans-tympanic injection in thermoreversible hydrogel composition (Example 4); assay type: in vivo, male Wistar rats; conditions: male, Wistar, other: trans-tympanic injection, 300 μg in one ear; rat inner ear fluid, trans-tympanic 300 μg, thermoreversible hydrogel, T0 + 168 hours, n = 4; read-out: Concentration of paliroden (fumarate salt), IEF, Mean
Where a name gives a salt, the structure may show the parent alone.
Metric: concentration at 168 h
Record the result as number plus unit.

Exam item: Look up concentration at 168 h for this compound: FC(F)(F)c1cccc(C2=CCN(CCc3ccc(-c4ccccc4)cc3)CC2)c1 [paliroden (fumarate salt)]
Marked response: 687 ng/mL
